Consider the following compounds; for each one, report its EC50.
target: hmGluR4 (Homo sapiens)
Construct: host or cells: HEK293T
assay.explanation: HEK-293 mGluR4 cells cAMP assay with EC20 L-Glutamate (HTRF)
Format: cell-based

Enquiry: Input `COc1ccc(N2C(=O)c3ccc(Br)cc3NC23CCN(Cc2ccc(F)c(F)c2)CC3)cc1F` , output reported EC50.
Return: < 1000 nM

Enquiry: Fill in EC50 for record `COc1ccc(N2C(=O)c3ccccc3CC23CCN(Cc2ccc(F)c(F)c2)CC3)cc1`
Return: 1000 to 10000 nM

* * *

target: hmGluR4 (Homo sapiens, UniProt Q14833)
Construct: host or cells: HEK293T
Sequence (Q14833 33-912): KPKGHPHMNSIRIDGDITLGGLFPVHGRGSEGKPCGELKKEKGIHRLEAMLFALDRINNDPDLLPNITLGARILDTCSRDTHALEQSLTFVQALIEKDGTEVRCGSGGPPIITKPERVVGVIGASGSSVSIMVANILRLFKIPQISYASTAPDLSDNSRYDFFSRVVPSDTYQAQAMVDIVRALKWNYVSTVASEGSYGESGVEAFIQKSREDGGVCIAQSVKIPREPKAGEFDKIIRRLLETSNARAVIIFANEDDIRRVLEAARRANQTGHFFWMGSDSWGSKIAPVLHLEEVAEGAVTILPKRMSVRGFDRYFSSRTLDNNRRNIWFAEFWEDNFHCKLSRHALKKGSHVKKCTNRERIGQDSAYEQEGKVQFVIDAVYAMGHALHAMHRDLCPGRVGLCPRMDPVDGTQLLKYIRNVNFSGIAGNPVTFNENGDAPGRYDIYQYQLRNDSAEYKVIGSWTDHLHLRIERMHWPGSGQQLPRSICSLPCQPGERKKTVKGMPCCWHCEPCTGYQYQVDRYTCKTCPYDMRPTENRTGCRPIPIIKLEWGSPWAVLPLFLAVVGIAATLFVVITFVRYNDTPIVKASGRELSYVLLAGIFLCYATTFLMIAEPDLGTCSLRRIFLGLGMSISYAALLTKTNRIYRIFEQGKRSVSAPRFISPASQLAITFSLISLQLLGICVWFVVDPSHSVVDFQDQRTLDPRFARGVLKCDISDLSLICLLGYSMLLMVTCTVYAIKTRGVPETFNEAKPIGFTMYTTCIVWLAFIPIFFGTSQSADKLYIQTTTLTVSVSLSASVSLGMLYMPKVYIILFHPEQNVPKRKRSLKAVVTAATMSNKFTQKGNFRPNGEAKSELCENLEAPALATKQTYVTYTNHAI
assay.explanation: HEK-293 mGluR4 cells cAMP assay with EC20 L-Glutamate (HTRF)
Format: cell-based
test.settings: positive allosteric activity at EC20 L-Glutamate, 10 μM Forskolin, HEK293T mGluR4 cells, cAMP HTRF; read-out: hrmGluR4/HEK293T-hmGluR4 (EC50)
observation.type: EC50

Enquiry: Annotate the molecule `O=C1c2ccc(F)cc2NC2(CCN(Cc3ccc(F)c(F)c3)CC2)N1c1ccc(Br)cc1` with its measured EC50.
Return: < 1 µM

Enquiry: Identify measured EC50 corresponding to O=C1c2ccc(Br)cc2NC2(CCN(C(c3cccc(F)c3)C(F)(F)F)CC2)N1c1ccc(OC(F)(F)F)cc1 (centres unmarked)
Return: < 1 µM

Enquiry: Report measured EC50; entry is `COc1ccc(N2C(=O)c3ccccc3NC23CCN(Cc2ccccc2C(F)(F)F)CC3)cc1`
Return: 1 to 10 µM

Enquiry: Fill in reported EC50 for this entry: `O=C1c2ccc(F)cc2CC2(CCN(Cc3ccc(F)c(F)c3)CC2)N1c1ccc(OC(F)(F)F)cc1`
Return: 1 to 10 µM

Enquiry: Supply EC50 value. Item: `COc1ccc(N2C(=O)c3ccc(-c4ccccc4)cc3NC23CCN(Cc2ccc(F)c(F)c2)CC3)cc1`
Return: < 1 µM

Enquiry: Please report EC50 for the following molecule: `COc1ccc(N2C(=O)c3ccccc3NC23CCN(Cc2cccc(C(F)(F)F)c2)CC3)cc1`
Return: 1 to 10 µM

Enquiry: Consider the molecule `O=C1c2ccc(Br)cc2NC2(CCN(Cc3cccc4cnccc34)CC2)N1c1ccc(OC(F)(F)F)cc1` . State its measured EC50.
Return: < 1 µM

Enquiry: Report EC50 for `COc1ccc(N2C(=O)c3ccccc3NC23CN(Cc2ccc(C)cc2)C3)cc1`
Return: 1 to 10 µM

Enquiry: Entry CC(c1ccc(F)cc1)N1CC2(C1)Nc1cc(F)ccc1C(=O)N2c1ccc(OC(F)(F)F)cc1 (centres unmarked) needs its EC50 filled in; supply it.
Return: 1 to 10 µM

Enquiry: Give EC50 for `COc1ccc(N2C(=O)c3ccccc3NC23CCN(Cc2ccc(Cl)c(Cl)c2)CC3)cc1`
Return: < 1 µM

Enquiry: Note down EC50 recorded for `COc1ccc(N2C(=O)c3ccccc3NC23CCN(Cc2cc(F)cc(F)c2)CC3)cc1`
Return: 1 to 10 µM

Enquiry: Note down EC50 recorded for `COC(=O)c1ccc2c(c1)NC1(CN(Cc3ccccc3)C1)N(c1ccc(OC)cc1)C2=O`
Return: < 1 µM

Enquiry: Note EC50 for the molecule shown: CCC(c1ccc(F)c(F)c1)N1CCC2(CC1)Nc1cc(Br)ccc1C(=O)N2c1ccc(Cl)cc1 (centres unmarked)
Return: < 1 µM

Enquiry: Indicate its recorded EC50; the molecule in question is `COc1ccc(N2C(=O)c3ccccc3NC23CCN(Cc2ccccc2C)CC3)cc1`
Return: 1 to 10 µM
